molecular target: monkey MSLN full-length protein expressed on HEK293T cells (HEK293T-monkey MSLN) (monkey); assay: FACS on HEK293T-monkey MSLN cells
Let's look at some binders and their measured Maximum mean fluorescence intensity.
The reply should be a number, written without any unit.

binder | Maximum mean fluorescence intensity
S009-F8-32.3 (antibody, human IgG1, kappa, V domains shown) VH: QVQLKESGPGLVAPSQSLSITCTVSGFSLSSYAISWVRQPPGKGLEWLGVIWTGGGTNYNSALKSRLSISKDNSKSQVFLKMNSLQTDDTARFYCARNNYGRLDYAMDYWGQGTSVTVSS VL: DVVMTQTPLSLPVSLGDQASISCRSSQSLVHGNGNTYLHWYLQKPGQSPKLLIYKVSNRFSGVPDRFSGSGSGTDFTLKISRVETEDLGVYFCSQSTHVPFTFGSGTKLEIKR | 112000
S009-F8-36.12 (antibody, human IgG1, kappa, V domains shown) VH: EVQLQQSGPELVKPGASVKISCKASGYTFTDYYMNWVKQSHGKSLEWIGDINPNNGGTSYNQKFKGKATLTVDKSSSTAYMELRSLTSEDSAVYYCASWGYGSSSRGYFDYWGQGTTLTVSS VL: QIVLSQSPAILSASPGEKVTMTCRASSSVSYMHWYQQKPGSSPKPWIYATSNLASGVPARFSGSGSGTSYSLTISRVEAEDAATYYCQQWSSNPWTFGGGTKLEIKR | 173

# context switch: different binder, same Maximum mean fluorescence intensity
Asked: Tell me measured Maximum mean fluorescence intensity for S009-F8-19.21 (antibody, human IgG1, kappa, V domains shown) VH: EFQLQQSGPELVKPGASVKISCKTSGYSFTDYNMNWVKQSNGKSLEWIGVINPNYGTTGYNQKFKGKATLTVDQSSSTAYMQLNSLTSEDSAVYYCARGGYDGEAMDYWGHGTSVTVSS VL: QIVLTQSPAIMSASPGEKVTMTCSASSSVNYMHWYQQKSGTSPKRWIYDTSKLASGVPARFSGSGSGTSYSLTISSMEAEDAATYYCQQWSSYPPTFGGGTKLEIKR please.
Given back: 24900
